Sourced from patent US8592581B2

Target: CDK2/cyclin E (Homo sapiens (Human), UniProt P24941)
Test: In-vitro recombinant kinase assay CDK2/cyclin E
Type: biochemical
Details: Table 4, Run 2; read-out: CDK2E Run 2
Measured quantity: IC50 (nM)

compound="CCC(Nc1nc(NCc2ccc(C(F)(F)F)nc2)c2ncn(C(C)C)c2n1)C(O)C(F)(F)F (centres unmarked) [[17]]" measured_quantity=IC50 measured=307
compound="CC(C)n1cnc2c(NCc3cccnc3)nc(NCC(O)(C(F)(F)F)C(F)(F)F)nc21 [[18]]" measured_quantity=IC50 measured=279

----------
Molecular target: CYP1A (Homo sapiens, UniProt P05177)
Sequence (P05177 2-516 limits assumed): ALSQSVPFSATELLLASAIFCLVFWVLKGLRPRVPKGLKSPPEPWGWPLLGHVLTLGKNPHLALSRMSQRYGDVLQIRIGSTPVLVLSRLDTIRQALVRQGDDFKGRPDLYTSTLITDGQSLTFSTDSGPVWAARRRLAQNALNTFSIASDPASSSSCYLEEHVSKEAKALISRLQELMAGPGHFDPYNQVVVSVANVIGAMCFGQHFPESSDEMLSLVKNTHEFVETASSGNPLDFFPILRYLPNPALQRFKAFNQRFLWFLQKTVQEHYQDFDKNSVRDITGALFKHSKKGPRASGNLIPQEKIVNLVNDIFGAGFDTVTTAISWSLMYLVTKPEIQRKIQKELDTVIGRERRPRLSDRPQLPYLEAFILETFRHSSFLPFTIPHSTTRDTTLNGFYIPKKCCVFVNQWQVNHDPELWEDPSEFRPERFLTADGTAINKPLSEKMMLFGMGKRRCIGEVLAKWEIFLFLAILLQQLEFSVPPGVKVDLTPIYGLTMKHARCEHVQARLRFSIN
Test: CYP1A inhibition, human liver microsomes, ethoxyresorufin
Assay type: in vitro ADME
Conditions: human liver microsomes, probe ethoxyresorufin (0.5 μM), read-out: IC50 (μM) CYP1A
Method: Six test compound concentrations (0.05, 0.25, 0.5, 2.5, 5, 25 μM in DMSO; final DMSO concentration=0.35%) were incubated with human liver microsomes (0.25 mg/mL) and NADPH (1 mM) in the presence of the probe substrate ethoxyresorufin (0.5 μM) for 5 min at 37° C. […] For the CYP1A incubations, the reactions were terminated by the addition of methanol, and the formation of the metabolite, resorufin, was monitored by fluorescence (excitation wavelength=535 nm, emission wavelength=595 nm). […]
Measured quantity: IC50 at 5 min

compound="CC[C@H](Nc1nc(NCc2cnc(C)cc2C)c2ncn(C(C)C)c2n1)[C@@H](C)O [Compound [1]]" measured="> 25 µM"
